Tested on: 422866-222-R5-J1-PDC complex spheroids viability;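 further: spheroids exposed to compounds for 7 days; 100% = DMSO vehicle control viability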
assay overview: Anticancer human tumor 422866-222-R5-J1-PDC patient-derived pancreatic adenocarcinoma cell line growth inhibition [RAS]
assay context: second compound 0.00949 µM; first compound 3.16 µM; stronger effect = lower value

compound: CC(=O)OC12COC1CC(O)C1(C)C(=O)C(O)C3=C(C)C(OC(=O)C(O)C(NC(=O)OC(C)(C)C)c4ccccc4)CC(O)(C(OC(=O)c4ccccc4)C21)C3(C)C (stereo not drawn) + CCn1c(-c2cccnc2C(C)OC)c2c3cc(ccc31)N1CCOC(CC(NC(=O)C(C(C)C)N(C)C(=O)C3(F)CCN(C(=O)C#CC(C)(C)N(C)C)CC3)C(=O)N3CCCC(N3)C(=O)OCC(C)(C)C2)C1
units: %
viability, T/C: 22.5
--
compound: CC(C)NCC(C(=O)N1CCN(c2ncnc3c2C(C)CC3O)CC1)c1ccc(Cl)cc1 (stereo not drawn) + CCn1c(-c2cccnc2C(C)OC)c2c3cc(ccc31)N1CCOC(CC(NC(=O)C(C(C)C)N(C)C(=O)C3(F)CCN(C(=O)C#CC(C)(C)N(C)C)CC3)C(=O)N3CCCC(N3)C(=O)OCC(C)(C)C2)C1
units: %
viability, T/C: 14.8
--
compound: NC1c2ccccc2OC12CCN(c1cnc3c(N4CCCc5ncccc54)n[nH]c3n1)CC2 (stereo not drawn) + CCn1c(-c2cccnc2C(C)OC)c2c3cc(ccc31)N1CCOC(CC(NC(=O)C(C(C)C)N(C)C(=O)C3(F)CCN(C(=O)C#CC(C)(C)N(C)C)CC3)C(=O)N3CCCC(N3)C(=O)OCC(C)(C)C2)C1
units: %
viability, T/C: 13.8
